System: Saccharomyces cerevisiae
run description: protein stability index of tFT-peptide fusion (C-terminal peptide) (PSI (0-1 scale)); higher = more stable (slower turnover)
reported conditions: genetic background: das1 deletion; temperature: 30 C
Quick list: protein stability index per entry.
assay readout: protein stability index

FCFCLVLRVFLG 0.154
IGSARIKLLCYH 0.592
ALVWYSLSIIVN 0.0515
IFFYPFLIFCFV 0.267
LFFVCSGVVFSF 0.407
SRPEPNGLRKLV 0.605
WFSVFTMSILSR 0.338
GRLVPVILLKLV 0.441
CLASCRHRTYLC 0.641
ARALLGVGWYWV 0.645
FVVHPARYYLVL 0.595
FGRAVWSRFCIV 0.601
LSRHLILFIVIR 0.172
FFICCPLLVVCS 0.091
FHRSVVRLWLRN 0.604
CLFRVCLFILSI 0.333
RPSHTSVYRLLH 0.655
ASICAFFCWFLV 0.457
RRRGIYARASVV 0.647
FVVWKDVLVMVR 0.2
WAAVGIQLRLLF 0.317
VFRLFFLLVWLV 0.184
WYVRVYVLSVES 0.186
LLRFFPCFLGVN 0.657
PSLAASFWRVVG 0.694
FCVLLFFFPLII 0.271
WHLLRFETQMFC 0.611
GMNGLFFIAMLG 0.514
VTFCFLFVWFLV 0.27
VWFGGLAVCCGG 0.303
WLGLFAFRRCLV 0.463
ALLVLTVSYVFS 0.0924
WCAMITVFCGSG 0.214
FLMCVFFLCFSN 0.308
HNLIRKHAKESS 0.641
FCCWCVCFGYSG 0.395
PPRSRPLLRPLP 0.666
YPFIPLIVCGFF 0.344
FYSLVQAWSKAP 0.648
FWGRAGVWRLKG 0.651
FPRQFVYLPLLF 0.555
FVFFRFSLLFFF 0.331
GLSWRLVWVVII 0.132
VLGARWHWIYIA 0.501
LPPFGLFLFVFI 0.31
VGVSVVMVVEVP 0.0504
WVVWVLVGGFGG 0.277
YYFFLTFLCYVF 0.154
VFLVFSVWVVYR 0.233
FGARCSLSPLVT 0.618
GVVVGVLLVCGW 0.28
PPPRSLSPPLLS 0.643
FEVLINIWFLSA 0.3
YHGVYLARVLQA 0.604
FCIIVFYIFVGI 0.342
LFPLFTLIFVHL 0.265
LCGYVGVVVCLV 0.243
PPPPPPLPSPSS 0.64
VPSMSIVWCRVL 0.417
PSCLLVAPRFSS 0.67
RKFRAWIRITRT 0.635
FFAIFSLLLSFT 0.401
LVFFLFFFRCFS 0.37
SSVCLYWCCLFV 0.443
LVRGSRLIVIVG 0.333
VVGRWGFVVECW 0.254
LCSYSTIPLRLY 0.614
PLLPPLSTPPPA 0.663
VPSPWVFSLFLH 0.604
LSLCPVHRLLVL 0.481

====

Tested on: Saccharomyces cerevisiae;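 note: PSI is a weighted mean of sequencing reads over stability bins, variants kept only with over 10 reads, mCherry proximal and sfGFP distal, peptide attached via GGGS linker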
run description: protein stability index of tFT-peptide fusion (C-terminal peptide) (PSI (0-1 scale)); higher = more stable (slower turnover)
reported conditions: genetic background: cdc53-1; temperature: 37 C
assay readout: protein stability index

APPLPFPTPPPS 0.747
FLSLSFLLLHFP 0.39
AFFLLVSLLVSP 0.0989
SKSRKTGWMLIS 0.743
LGFHFFFTLIFF 0.274
RVGGVVVLGCVG 0.711
RLRWLSPMTHVG 0.734
CGWVRRARVKMM 0.693
